These data points were gathered from ChEMBL document CHEMBL1201862.

In this section, each of the compounds is paired with its reported GI50.
test system: SNB-75; assay: NCI tumour cell line growth inhibition, 48 h
Activity calls are given as the source filed them. No stated cut-off is given here; in the data, active = GI50 up to about 1.1 µM and inactive = higher.

Examples with answers:
- Cc1c2ccccc2cc2nc3ccccc3n12: > 10 µM (inactive)
- COC(=O)C1C2CCCN2OC1(C)CO (stereo not drawn): > 100 µM (inactive)
- O=C(NCCCCCCCCCCCCNC(=O)Nc1cccc2ccccc12)Nc1cccc2ccccc12: 12.9 µM (inactive)
- COc1ccc2c(c1)C(=O)C1(C2)[C@H](c2ccccc2)C2C(=O)c3cc(OC)ccc3C2[C@H]1c1ccccc1 (stereo partly drawn): 92.3 µM (inactive)
- Brc1sc(Br)c2c1[C@H](Br)C[C@@H]2Br: 30.1 µM (inactive)

INPUT: Name the reported GI50 value associated with the compound Brc1ccc(-c2ccc(-c3ccc(-c4ccc(Br)s4)s3)s2)s1
OUTPUT: > 100 µM (inactive)

INPUT: Moving on to the next compound: C=C(C)C1Cc2c(cc3c(c2O)c(=O)c2ccccc2n3C)O1 (stereo not drawn)
OUTPUT: 4.5 µM (inactive)

INPUT: Moving on to the next compound: O=c1c2sc3ccccc3sc=2c(=O)c2c(Cl)c(Cl)c(Cl)c(Cl)c12
OUTPUT: > 100 µM (inactive)

INPUT: Moving on to the next compound: CN(C)c1ccc(-c2c(C#N)c(O)n(NS(=O)(=O)c3ccccc3)c(=O)c2C#N)cc1
OUTPUT: > 100 µM (inactive)

INPUT: Moving on to the next compound: CCOC(=O)C1(Cc2ccccc2)Cc2cc3c(cc2C1=O)CCC3 (stereo not drawn)
OUTPUT: > 100 µM (inactive)

INPUT: Moving on to the next compound: Cc1oc(N)c(S(=O)(=O)c2cc3ccccc3[n+]([O-])c2N)c1C
OUTPUT: > 100 µM (inactive)

INPUT: Moving on to the next compound: O=c1c(-c2ccccc2F)coc2cc(F)ccc12
OUTPUT: 24.2 µM (inactive)

INPUT: Moving on to the next compound: Cc1nc2ccccc2c(=O)n1-c1ccccc1F
OUTPUT: 30.2 µM (inactive)

---

In this section, each of the compounds is paired with its reported GI50.
test system: HOP-18; assay: NCI tumour cell line growth inhibition, 48 h
Activity calls are given as the source filed them. Rule as the data show it: active = GI50 up to about 1.1 µM and inactive = higher.

Examples with answers:
* O=C(O)C1Cc2c([nH]c3ccccc23)C=N1 (centres undefined) | 30.3 µM (inactive)
* COc1ccc2nc3cc(Cl)ccc3c(Sc3ccc([N+](=O)[O-])cc3C)c2c1 | > 100 µM (inactive)
* CN(c1nc(=[N+](C)C)ss1)C1CCCCC1 | > 100 µM (inactive)
* COC1=CC(=O)c2ccccc2C1(CCC=C(C)C)C1=NC(C)(C)CO1 (centres undefined) | 43.6 µM (inactive)
* CCOC(=O)c1cnc2[nH]c(=O)c3ccccc3n2c1=O | > 100 µM (inactive)
* COc1ccc(-c2[nH]c3ccccc3c2CCNS(=O)(=O)c2ccc(C)cc2)cc1 | > 7.4 µM (inactive)
* CCCCSCC(NC(=O)/C=C/c1c(C)[nH]c(=O)[nH]c1=O)C(=O)OC (centres undefined) | 61.2 µM (inactive)
* COC(=O)C1[C@@H](C(=O)OC)C(=O)O[C@H]1c1cc(OC)c(OC)c(OC)c1 (some centres undefined) | > 100 µM (inactive)

INPUT: Name the reported GI50 value associated with the compound CC1Cc2c(N)nc(N3CCOCC3)nc2NC1=O (centres undefined)
OUTPUT: > 100 µM (inactive)

---

tested on: NCI-H460; assay: NCI tumour cell line growth inhibition, 48 h
Active and inactive are the calls of the source. Rule as the data show it: active = GI50 up to about 1.1 µM and inactive = higher.
experimentalEndpoint: GI50

- O=P(O)(OCC(O)O)OCC(O)O: > 100 µM (inactive)
- CCOC(=O)C1(C(=O)OCC)[C@H](c2ccccc2)C2=NO[C@@H]3CCC[C@H]1[C@H]23: 60.5 µM (inactive)

INPUT: Name the reported GI50 value associated with the compound [N-]=[N+]=NCc1nc(N)c2c3c(sc2n1)CCCC3
OUTPUT: 3.43 µM (inactive)

INPUT: Moving on to the next compound: C=CCNC1=NC(=O)C(CC(=O)Nc2cccc(Cl)c2)S1 (stereo not drawn)
OUTPUT: > 100 µM (inactive)

---

system: 786-0; experiment: NCI tumour cell line growth inhibition, 48 h
Activity calls are given as the source filed them. Cut-off read from the data, not from the text of the source: active = GI50 up to about 1.1 µM and inactive = higher.
Your reply should match one of these outcome classes. active, inactive

Example entries and their recorded answers appear below.
* COc1cccc2c1C(=O)c1c(O)c3c(c(O)c1C2=O)C[C@@](O)(C(=O)CO)C[C@@H]3OC1CC(N)CC(C)O1 (stereo partly drawn) | active
* COC(=O)/C(C#N)=C1\CCC(O)N1C (stereo not drawn) | inactive

INPUT: Answer briefly: the call reported for O=c1c(O)c(-c2ccc(O)cc2O)oc2cc(O)cc(O)c12 [MORIN] in this assay.
OUTPUT: inactive

INPUT: Moving on to the next molecule: CC(=O)NC1C(OCc2ccccc2)OC(CO)C(O)C1OC(C)C(=O)NC(C)C(=O)N[C@@H](CCC(=O)OCCCNC1c2ccccc2Nc2cccc([N+](=O)[O-])c21)C(N)=O (stereo partly drawn)
OUTPUT: active

INPUT: Moving on to the next molecule: CC(=O)OC[C@]1(C(=O)C(O)c2ccoc2)[C@H](C)CC[C@@]23COC(=O)C2=CCC[C@@H]31 (stereo partly drawn)
OUTPUT: inactive

INPUT: Moving on to the next molecule: COC(=O)/C1=C/c2c([nH]c3ccccc23)/C(C(=O)OC)=C\c2c1[nH]c1ccccc21 [CAULERPIN]
OUTPUT: inactive

INPUT: Moving on to the next molecule: CC(=N\N)/C(C)=N/N=C(C)/C(C)=N/N
OUTPUT: inactive

---

test system: XF498; assay: NCI tumour cell line growth inhibition, 48 h
Active and inactive are the calls of the source. No stated cut-off is given here; in the data, active = GI50 up to about 1.1 µM and inactive = higher.
Your reply should match one of these outcome classes. active, inactive

Example entries and their recorded answers appear below.
* CCOC(=O)C1=C(Nc2ccccc2)OC/C1=N\NC(=O)Cc1ccccc1 | inactive
* [N-]=[N+]=NC1C(Cl)C(=O)NC(=O)N1[C@H]1C[C@H](O)[C@@H](CO)O1 (some centres undefined) | inactive
* CC1(C)CC23C4COC(=O)C2CCC1C3CC4=O (centres undefined) | inactive
* CCN(CC)CC(C)(C)C(=O)/C=C/c1ccc(C)cc1 | inactive
* Cc1ccc(N2C(=O)/C(=C3\Sc4c(nc(C)[nH]c4=O)N3c3ccccc3)SC2=S)cc1 | inactive
* CC1Cc2c(N)nc(N3CCOCC3)nc2NC1=O (centres undefined) | active

INPUT: Answer briefly: the call reported for CC(=O)OC[C@]1(O)CC[C@@]23CC1C[C@@H]2CCC1C(C)(C)CCC[C@@]13C (some centres undefined) in this assay.
OUTPUT: inactive

INPUT: Moving on to the next compound: C=C/C=C/NC(=O)OCc1ccccc1
OUTPUT: inactive

INPUT: Moving on to the next compound: CCCc1c(C(=O)OCC)[nH]c(-c2ccc(-c3[nH]c(C(=O)OCC)c(CCC)c3C(=O)OCC)o2)c1C(=O)OCC
OUTPUT: inactive

INPUT: Moving on to the next compound: Nc1nc2c(ncn2C2OC(CO)C(O)C2O)c(=O)o1 (centres undefined)
OUTPUT: inactive

INPUT: Moving on to the next compound: O=P(O)(OCC(O)O)OCC(O)O
OUTPUT: inactive

INPUT: Moving on to the next compound: CCN(CC)CCCCC1CCN(CC(=O)N2c3ccccc3NC(=O)c3ccccc32)CC1
OUTPUT: inactive

---

system: Hs-578T; test: NCI tumour cell line growth inhibition, 48 h
Calls of active or inactive are those of the source. No stated cut-off is given here; in the data, active = GI50 up to about 1.1 µM and inactive = higher.
Your reply should match one of these outcome classes. 1 (yes) for active, 0 (no) for inactive

* CC12CC(c3ccccc3O1)C(C(=O)Nc1nccs1)C(=O)N2 (centres undefined) | 0 (no)

INPUT: Answer briefly: the call reported for Cc1cc2ccccc2n1CC(=O)N1CCCC1 in this assay.
OUTPUT: 0 (no)

INPUT: Moving on to the next compound: CCOP(=O)(CCCC(O)CNc1nc(N)nc(Cl)c1/N=N/c1ccc(Cl)cc1)OCC (centres undefined)
OUTPUT: 0 (no)

INPUT: Moving on to the next compound: COc1ccccc1-c1cc(O)c2c(C)cc(C)nc2n1
OUTPUT: 0 (no)

INPUT: Moving on to the next compound: CC1(C)N=C(C2CCCN2C(=O)OCc2ccccc2)OC1=O (centres undefined)
OUTPUT: 0 (no)

INPUT: Moving on to the next compound: COc1nc2ncc([C@@H](O)[C@H](O)CO)nc2c(=O)[nH]1
OUTPUT: 0 (no)

INPUT: Moving on to the next compound: N=C(N)NS(=O)(=O)c1ccc(Nc2c3ccccc3nc3c(C(=O)NCCO)cccc23)cc1
OUTPUT: 1 (yes)

INPUT: Moving on to the next compound: COc1ccc2nc3cc(Cl)ccc3c(NCCCNCc3cc(OC)c(OC)c(OC)c3)c2c1
OUTPUT: 0 (no)

INPUT: Moving on to the next compound: NCCCNC1(c2cc3ccccc3s2)CCCCC1
OUTPUT: 0 (no)
